Listing of entries alongside the reported logP.

[
  {
    "entry-smiles": "Clc1cccc(Oc2ccc(Cl)c(Cl)c2)c1",
    "logP": 5.74
  },
  {
    "entry-smiles": "Clc1ccc(Cl)c(Oc2ccc(Cl)c(Cl)c2Cl)c1",
    "logP": 6.51
  },
  {
    "entry-smiles": "Clc1ccc(Oc2c(Cl)ccc(Cl)c2Cl)cc1",
    "logP": 5.64
  },
  {
    "entry-smiles": "Clc1ccc(Oc2ccccc2)c(Cl)c1",
    "logP": 4.93
  },
  {
    "entry-smiles": "Clc1ccc(Oc2c(Cl)c(Cl)cc(Cl)c2Cl)c(Cl)c1Cl",
    "logP": 7.14
  },
  {
    "entry-smiles": "Clc1cc(Cl)c(Oc2c(Cl)ccc(Cl)c2Cl)cc1Cl",
    "logP": 6.47
  },
  {
    "entry-smiles": "Clc1cccc(Oc2cc(Cl)c(Cl)cc2Cl)c1",
    "logP": 6.14
  },
  {
    "entry-smiles": "Clc1ccc(Oc2c(Cl)c(Cl)c(Cl)c(Cl)c2Cl)c(Cl)c1",
    "logP": 7.31
  },
  {
    "entry-smiles": "Clc1c(Cl)c(Cl)c(Oc2c(Cl)c(Cl)c(Cl)c(Cl)c2Cl)c(Cl)c1Cl",
    "logP": 8.16
  },
  {
    "entry-smiles": "Clc1cc(Cl)cc(Oc2ccc(Cl)c(Cl)c2)c1",
    "logP": 6.22
  },
  {
    "entry-smiles": "Clc1cc(Cl)c(Oc2cc(Cl)c(Cl)cc2Cl)c(Cl)c1",
    "logP": 6.49
  },
  {
    "entry-smiles": "Clc1cc(Oc2ccc(Cl)c(Cl)c2Cl)cc(Cl)c1Cl",
    "logP": 6.99
  }
]
